assay: chemical genetic growth profiling, strain panel (AID 1159580);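 also: tested at 20 µM; growth read once vehicle control cultures reached saturation at 30 °C; 1 = growth at the plate median or of vehicle wells; lower values mean less growth of the strain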; settings: S. cerevisiae deletion strains, growth OD, locus YKL009W, strain mrt4
The campaign covered roughly 5,500 compounds. About 2,000 (36%) were called active. Inconclusive results (about 18%) are left out. Rule as the data show it: active = normalized growth mostly below about 0.91 (no sharp cut-off); inconclusive = no clear call, values can overlap the other calls; inactive = mostly above about 0.92. The list shows a part of the results.
Classes used: class 1 = active, class 0 = inactive

COMPOUND | CLASS ASSIGNMENT
c1cncc(C2CCCCN2)c1 (configuration not stated) | class 0
COc1cc(NC(C)CCCN)c2ncccc2c1 (configuration not stated) | class 0
CC1=C(/C=C/C(C)=C/C=C/C(C)=C/C=C/C=C(C)/C=C/C=C(C)/C=C/C23OC2(C)CC(O)CC3(C)C)C(C)(C)CC(O)C1 (configuration not stated) | class 0
O=C(O)c1cc2ccccc2[nH]1 | class 0
CN(C)c1ccc(C(=C2C=CC(=[N+](C)C)C=C2)c2ccc(N(C)C)cc2)cc1 | class 1
O=C(O)c1c2ccccc2cc2ccccc12 | class 0
CC(N)C(=O)OC(C)(C)Cc1ccc(Cl)cc1 (configuration not stated) | class 0
O=C1C=CC(=C(c2ccc(O)cc2)c2ccc(O)cc2)C=C1 | class 0
COCCc1ccc(OCC(O)CNC(C)C)cc1 (configuration not stated) | class 0
CCOC(=O)c1c(C)cc(O)c(C)c1O | class 0
Cc1cc(O)c(C=O)c(O)c1C(=O)O | class 0
CCOC(=O)c1c(C)cc(O)c(C=O)c1O | class 1

###

assay: chemical genetic growth profiling, strain panel (AID 1159580);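 also: tested at 20 µM; growth read once vehicle control cultures reached saturation at 30 °C; 1 = growth at the plate median or of vehicle wells; lower values mean less growth of the strain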; settings: S. cerevisiae deletion strains, growth OD, locus YOR231W, strain MKK1, active compounds read low
The whole screen tested about 5,500 compounds, of which about 2,000 (36%) were called active. Roughly 18% stayed inconclusive and do not appear here. The list shows a part of the results.
MEASUREMENT TYPE: normalized growth

COMPOUND | MEASUREMENT TYPE | VALUE OBSERVED
ClC1=C(Cl)C2(Cl)C3C(Cl)C=CC3C1(Cl)C2(Cl)Cl (stereo unspecified) | normalized growth | 1.02
CC(N)C(=O)OC(C)(C)Cc1ccc(Cl)cc1 (stereo unspecified) | normalized growth | 1.02
CCOC(=O)C(C)(C)Oc1ccc(Cl)cc1 | normalized growth | 0.94
CC(C)OC(=O)C(C)(C)Oc1ccc(C(=O)c2ccc(Cl)cc2)cc1 | normalized growth | 0.949
ClC1=C(Cl)C2(Cl)C3C4CC(C5OC45)C3C1(Cl)C2(Cl)Cl (stereo unspecified) | normalized growth | 1.04
CC1=C(C/C=C(\C)CCC[C@H](C)CCC[C@H](C)CCCC(C)C)C(=O)c2ccccc2C1=O | normalized growth | 0.979

###

experiment: chemical genetic growth profiling, strain panel (AID 1159580);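 also: tested at 20 µM; growth read once vehicle control cultures reached saturation at 30 °C; 1 = growth at the plate median or of vehicle wells; lower values mean less growth of the strain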; conditions: S. cerevisiae deletion strains, growth OD, locus YOL147C, strain pex11, active compounds read low
Out of some 5,500 compounds screened, about 2,000 (36%) were called active. Not shown: some 18% with an inconclusive outcome. This is one part of the list.
Recorded normalized growth, one value per entry.

COMPOUND | normalized growth
CCCCNc1cc(C(=O)O)cc(S(N)(=O)=O)c1Oc1ccccc1 | 0.977
CC(C)CC(NC(=O)C(Cc1ccccc1)NC(=O)CNC(=O)CNC(=O)C(N)Cc1ccc(O)cc1)C(=O)O (stereo unspecified) | 0.993
C[N+](C)(C)CCOC(N)=O | 0.978
COc1ccc2c(c1)OCc1c-2oc2cc(OC)ccc12 | 1.01
ClC1=C(Cl)C2(Cl)C3C4C=CC(C4)C3C1(Cl)C2(Cl)Cl (stereo unspecified) | 0.996
CC(C[N+](C)(C)C)OC(N)=O (stereo unspecified) | 0.987
